Answer each item with its documented PBM 8-mer E-score.
System: muMax20 (Max(13-93) K31hArg/K57hArg, M65Nle)
Test: PBM 8-mer E-score (E-score (rank enrichment, -0.5 to 0.5)); higher = stronger preferential binding
Whole data set: some 33,000 sequences, median “E-score (rank enrichment, -0.5 to 0.5)” near -0.0068, cut for the highest 2% near 0.24. The list comes from a sample in which the highest values are over-represented; it also holds close analogues and randomly drawn sequences.
Just the number, please.

Sure, the documented PBM 8-mer E-score for GCGTCGAC is -0.038

Sure, the documented PBM 8-mer E-score for AGCTTTAT is -0.0838

Sure, the documented PBM 8-mer E-score for CGCAAGTC is -0.182

Sure, the documented PBM 8-mer E-score for CATGTGGA is 0.213

Sure, the documented PBM 8-mer E-score for ACCCCCTG is -0.181

Sure, the documented PBM 8-mer E-score for AAATTTCG is 0.186

Sure, the documented PBM 8-mer E-score for GACGTGGA is 0.04

Sure, the documented PBM 8-mer E-score for CATGTGGG is 0.309

Sure, the documented PBM 8-mer E-score for ACCACGTG is 0.477

Sure, the documented PBM 8-mer E-score for AAGGATAT is 0.247

Sure, the documented PBM 8-mer E-score for AATGTGGG is 0.142

Sure, the documented PBM 8-mer E-score for GTTAATCA is 0.204

Sure, the documented PBM 8-mer E-score for GACACGAC is 0.0582

Sure, the documented PBM 8-mer E-score for CCACTGAC is -0.169

Sure, the documented PBM 8-mer E-score for ACCATGTA is 0.0719

Sure, the documented PBM 8-mer E-score for CACAGGTG is -0.0404

Sure, the documented PBM 8-mer E-score for AGCATGTC is 0.0591

Sure, the documented PBM 8-mer E-score for GTCGAGGA is -0.115

Sure, the documented PBM 8-mer E-score for AGCACGTA is 0.0788

Sure, the documented PBM 8-mer E-score for GGCCTATA is -0.132

Sure, the documented PBM 8-mer E-score for ACATTTGG is 0.0453

Sure, the documented PBM 8-mer E-score for ACCACGTA is -0.0417

Sure, the documented PBM 8-mer E-score for ACCCAGTG is -0.0911

Sure, the documented PBM 8-mer E-score for AGCATGTG is 0.276

Sure, the documented PBM 8-mer E-score for GCCTCGAC is -0.225

Sure, the documented PBM 8-mer E-score for TGTGTGAA is 0.183

Sure, the documented PBM 8-mer E-score for GTAATTTA is 0.0797

Sure, the documented PBM 8-mer E-score for ATCATGTC is 0.225

Sure, the documented PBM 8-mer E-score for ATCACGTC is 0.182

Sure, the documented PBM 8-mer E-score for CCGGCCCG is -0.259

Sure, the documented PBM 8-mer E-score for AACGTAAG is -0.0553

Sure, the documented PBM 8-mer E-score for GAGGATAA is 0.0253

Sure, the documented PBM 8-mer E-score for ATCACGTG is 0.445

Sure, the documented PBM 8-mer E-score for CTCTGCGA is -0.167

Sure, the documented PBM 8-mer E-score for ACCATGTC is 0.0641

Sure, the documented PBM 8-mer E-score for TACGTAGA is 0.0117

Sure, the documented PBM 8-mer E-score for ATCACGTA is 0.144

Sure, the documented PBM 8-mer E-score for ATCATGTG is 0.247

Sure, the documented PBM 8-mer E-score for CGCCTATA is -0.0178

Sure, the documented PBM 8-mer E-score for ACCACGTC is 0.0772

Sure, the documented PBM 8-mer E-score for ACTCCAGA is -0.0288

Sure, the documented PBM 8-mer E-score for ATGCGATA is -0.0659

Sure, the documented PBM 8-mer E-score for CGGCGCGC is 0.00798

Sure, the documented PBM 8-mer E-score for AGCCTATA is 0.25

Sure, the documented PBM 8-mer E-score for ATTGTGGA is 0.0503

Sure, the documented PBM 8-mer E-score for ATTAAGTG is 0.148

====

Test system: muMax20 (Max(13-93) K31hArg/K57hArg, M65Nle)
Test: PBM 8-mer E-score (E-score (rank enrichment, -0.5 to 0.5)); higher = stronger preferential binding
The full ranking holds about 33,000 sequences; the median of “E-score (rank enrichment, -0.5 to 0.5)” is about -0.0068, and the highest 2% start at about 0.24. Only a selection was taken, and the highest values are over-represented in it overall.
ENDPOINT LABEL: PBM 8-mer E-score
Just the number, please.

Sure, the documented PBM 8-mer E-score for ATCATGAA is 0.111

Sure, the documented PBM 8-mer E-score for AACAACAA is 0.243

Sure, the documented PBM 8-mer E-score for AATTGATA is 0.232

Sure, the documented PBM 8-mer E-score for TAATAAAA is 0.246

Sure, the documented PBM 8-mer E-score for AACTCCCG is -0.034

Sure, the documented PBM 8-mer E-score for ACATGCAG is 0.032

Sure, the documented PBM 8-mer E-score for ACATATGC is 0.105

Sure, the documented PBM 8-mer E-score for ATCAACAA is 0.101

Sure, the documented PBM 8-mer E-score for AACGTGAC is 0.155

Sure, the documented PBM 8-mer E-score for AATTGATC is 0.0857

Sure, the documented PBM 8-mer E-score for AACGCTAG is -0.145

Sure, the documented PBM 8-mer E-score for ACGACGCA is 0.00737

Sure, the documented PBM 8-mer E-score for CCCGTGAG is -0.289

Sure, the documented PBM 8-mer E-score for GGGGCACA is 0.0581

Sure, the documented PBM 8-mer E-score for ACATCACT is 0.245

Sure, the documented PBM 8-mer E-score for ATATATGA is 0.218

Sure, the documented PBM 8-mer E-score for ACCATGCA is 0.28

Sure, the documented PBM 8-mer E-score for ACATCACA is 0.221

Sure, the documented PBM 8-mer E-score for AACAATTA is 0.259

Sure, the documented PBM 8-mer E-score for CACGTTAG is 0.0823

Sure, the documented PBM 8-mer E-score for ATATCACA is 0.117

Sure, the documented PBM 8-mer E-score for GAATAAAA is 0.0698

Sure, the documented PBM 8-mer E-score for GCATCATA is 0.274

Sure, the documented PBM 8-mer E-score for CTTTTAGC is 0.0351

Sure, the documented PBM 8-mer E-score for AAAACATT is 0.127

Sure, the documented PBM 8-mer E-score for ACACTCGG is -0.0657

Sure, the documented PBM 8-mer E-score for AACATAAT is 0.31

Sure, the documented PBM 8-mer E-score for ACATATGG is 0.12

Sure, the documented PBM 8-mer E-score for AACACATG is 0.317

Sure, the documented PBM 8-mer E-score for GTATGTGA is 0.0146

Sure, the documented PBM 8-mer E-score for GTATAAAA is 0.288

Sure, the documented PBM 8-mer E-score for CCCATGCA is 0.133

Sure, the documented PBM 8-mer E-score for AAATAAAA is 0.252

Sure, the documented PBM 8-mer E-score for ACCACCGC is -0.0018

Sure, the documented PBM 8-mer E-score for AATTGATG is 0.264

Sure, the documented PBM 8-mer E-score for CTATCGTC is -0.0258

Sure, the documented PBM 8-mer E-score for ATTTATTA is 0.132

Sure, the documented PBM 8-mer E-score for AGCGGCCA is -0.227

Sure, the documented PBM 8-mer E-score for CTGGCCTC is -0.191

Sure, the documented PBM 8-mer E-score for TGCATGCA is 0.0968

Sure, the documented PBM 8-mer E-score for AACAATTC is 0.127

Sure, the documented PBM 8-mer E-score for TACGTGAA is 0.144

Sure, the documented PBM 8-mer E-score for ATATGTGA is 0.32

Sure, the documented PBM 8-mer E-score for ACATGCAC is 0.185

Sure, the documented PBM 8-mer E-score for AAAACTTT is 0.133

Sure, the documented PBM 8-mer E-score for CTATCATA is 0.208

Sure, the documented PBM 8-mer E-score for CGCACTCA is -0.0736

Sure, the documented PBM 8-mer E-score for ACATGCAT is 0.294

Sure, the documented PBM 8-mer E-score for GTTGGTAA is 0.0564

Sure, the documented PBM 8-mer E-score for TTATAAAA is 0.235

Sure, the documented PBM 8-mer E-score for CGCGTGAC is 0.268

Sure, the documented PBM 8-mer E-score for ATCGCAAT is 0.0576

Sure, the documented PBM 8-mer E-score for GCATGCAA is 0.147

Sure, the documented PBM 8-mer E-score for ACAGAGTC is -0.0304

Sure, the documented PBM 8-mer E-score for AAAACATG is 0.279

Sure, the documented PBM 8-mer E-score for CACGTGAC is 0.459

Sure, the documented PBM 8-mer E-score for GACGTGAA is -0.111

Sure, the documented PBM 8-mer E-score for GCATCAGA is 0.0605

Sure, the documented PBM 8-mer E-score for GGATAGAA is 0.123

Sure, the documented PBM 8-mer E-score for ATCTAACA is 0.0591

Sure, the documented PBM 8-mer E-score for CACAACAA is 0.205

Sure, the documented PBM 8-mer E-score for CTATATGC is 0.238

Sure, the documented PBM 8-mer E-score for CTCTAACC is -0.0244

Sure, the documented PBM 8-mer E-score for ATATATGC is 0.0936

Sure, the documented PBM 8-mer E-score for AAGAACTC is -0.0481

Sure, the documented PBM 8-mer E-score for TGAACAAA is 0.00782

Sure, the documented PBM 8-mer E-score for CTTTATTC is 0.0219

Sure, the documented PBM 8-mer E-score for ATCAACAT is 0.241

Sure, the documented PBM 8-mer E-score for CAGTTAGG is 0.0928

Sure, the documented PBM 8-mer E-score for TCATGCAA is 0.277

Sure, the documented PBM 8-mer E-score for ACAAACCC is 0.11

Sure, the documented PBM 8-mer E-score for ATCATAAG is 0.19

Sure, the documented PBM 8-mer E-score for GGTAAGGA is -0.00502

Sure, the documented PBM 8-mer E-score for CCCAATTA is 0.187

Sure, the documented PBM 8-mer E-score for ATCATAAA is 0.212

Sure, the documented PBM 8-mer E-score for AACAACGA is 0.147

Sure, the documented PBM 8-mer E-score for GGCATGCA is 0.106

Sure, the documented PBM 8-mer E-score for ACTCGCTA is -0.111

Sure, the documented PBM 8-mer E-score for ACATGCAA is 0.16

Sure, the documented PBM 8-mer E-score for CTATCACA is 0.169

Sure, the documented PBM 8-mer E-score for CTATGTGA is 0.0996

Sure, the documented PBM 8-mer E-score for GCATATGA is 0.186

Sure, the documented PBM 8-mer E-score for CGCGTGAG is 0.122

Sure, the documented PBM 8-mer E-score for AACATAAC is 0.18

Sure, the documented PBM 8-mer E-score for AACACATT is 0.0928

Sure, the documented PBM 8-mer E-score for AAATAAAT is 0.156

Sure, the documented PBM 8-mer E-score for AACATAAG is 0.13

Sure, the documented PBM 8-mer E-score for CCCGCACG is -0.0959

Sure, the documented PBM 8-mer E-score for AAAAATCT is 0.0641

Sure, the documented PBM 8-mer E-score for ATCATGAT is 0.289

Sure, the documented PBM 8-mer E-score for CGCGTGAA is 0.00405

Cited source for all entries: the supplement of paper PMC12636033
